This collection of values is drawn from PubChem BioAssay (NCI).

# System: T-47D breast
# TEST_METHOD_NOTES: NCI-60 one-dose screen, 48 h
# REPORTED_CONDITIONS: 10 µM unless noted
Compounds without any hit were thinned out: in the full panel of roughly 83,000, 20% have a hit. Active and inactive are the calls of the source. Rule for the calls: active = growth percent below 10; inactive = the rest.
Output constraint: value belongs to active, inactive

(Q) How was `CC(=O)c1c(C)c2cnc(Nc3ccc(N4CCNCC4)cn3)nc2n(C2CCCC2)c1=O` classified in this test?
(A) inactive

(Q) How was `O=C(COc1ccc(/C=C2\Cc3ccc(Cl)cc3C2=O)cc1)Nc1nccs1` classified in this test?
(A) inactive

(Q) How was `CNC(=O)c1nn(C)c2c1C(C)(C)Cc1cnc(Nc3ccc(N4CCN(C)CC4)cc3)nc1-2` classified in this test?
(A) active

(Q) How was CC(=O)C1CC(C)CCC1C(C)C (centres undefined) classified in this test?
(A) inactive

(Q) How was `CNC(=O)c1c(C)oc2cc(Oc3ncnc4cc(OC)c(OC)cc34)ccc12` classified in this test?
(A) inactive

(Q) How was `C=CC[n+]1c(/C=C2\Sc3ccccc3N2C)sc(-c2ccccc2)c1-c1ccccc1` classified in this test?
(A) active

(Q) How was `Cc1nc(NC(=O)N2CCC[C@H]2C(N)=O)sc1-c1ccnc(C(C)(C)C(F)(F)F)c1` classified in this test?
(A) active

(Q) How was `COc1ccc(C(=O)N2c3ccccc3Sc3ccccc32)c(F)c1` classified in this test?
(A) inactive

(Q) How was `Cc1cc2c(-c3nc4ccccn4c3Nc3cccc4ccccc34)c(O)c(O)cc2c(O)c1-c1c(C)cc2c(-c3nc4ccccn4c3Nc3cccc4ccccc34)c(O)c(O)cc2c1O` classified in this test?
(A) inactive

(Q) How was `C[C@@H](Oc1cc(C(=O)Nc2ccc(C(=O)N3CCN(C)CC3)cc2)nnc1N)c1c(Cl)ccc(F)c1Cl` classified in this test?
(A) inactive

(Q) How was `COC(=O)[C@]12CC[C@@H](C)[C@H](C)[C@@H]1C1=CC[C@@H]3[C@@]4(C)C(c5cnco5)=C[C@@](C)(CO)C4=CC[C@@]3(C)[C@]1(C)CC2` classified in this test?
(A) inactive

(Q) How was `N#CCNC(=O)c1ccc(-c2ccnc(Nc3ccc(N4CCOCC4)cc3)n2)cc1` classified in this test?
(A) inactive

(Q) How was `O=C(CNc1nc2ccccc2s1)Nc1ccc(-c2nc3ccccc3s2)cc1` classified in this test?
(A) inactive

(Q) How was `COc1cc(-c2cc(-c3ccc(Nc4ccnc5cc(Cl)ccc45)cc3)nc(N3CCOCC3)n2)cc(OC)c1OC` classified in this test?
(A) inactive

(Q) How was `O=C(NOC[C@H](O)CO)c1ccc(F)c(F)c1Nc1ccc(I)cc1F` classified in this test?
(A) inactive

(Q) How was `CCCCCCCCCCCC[n+]1ccccc1` classified in this test?
(A) active

(Q) How was `Cc1sc2c(c1C)c(=O)nc1c(-c3nc4ccccc4s3)n[nH]n12` classified in this test?
(A) inactive

(Q) How was `C=CC(=O)N1CCC(Oc2cc3c(Nc4ccc(Cl)c(Cl)c4F)ncnc3cc2OC)CC1` classified in this test?
(A) active

(Q) How was `CCOC(=O)C1=C(C)N=C2Sc3cc(OC(F)(F)F)ccc3N2[C@H]1c1ccccn1` classified in this test?
(A) inactive
